# Tested on: 996289-038-R-J1-PDC complex spheroid viability
# assayInfo: Anticancer human tumor 996289-038-R-J1-PDC patient-derived colon adenocarcinoma cell line growth inhibition [CLK]
# conditionsUsed: curve of first compound; second compound 10 µM
Recorded IC50 for the following molecules

Use the examples below as a reference point.
1) COc1cccc2c1C(=O)c1c(O)c3c(c(O)c1C2=O)CC(O)(C(=O)CO)CC3OC1CC(N)C(O)C(C)O1 (centres undefined) + CN1CCN(c2cc(C(=O)Nc3cc4cc(-c5cnn(C)c5)ccc4cn3)ccn2)CC1 ... < 0.0316 µM
2) C=CC(=O)N1CCN(c2nc(=O)n(-c3c(C)ccnc3C(C)C)c3nc(-c4c(O)cccc4F)c(F)cc23)C(C)C1 (centres undefined) + CNC(=O)c1ccc(Nc2nc(OC3CCCC3)c3c(-c4ccc5nc(C)oc5c4)c[nH]c3n2)c(OC)c1 ... > 10 µM
3) Nc1ccn(C2OC(CO)C(O)C2(F)F)c(=O)n1 (centres undefined) + CN1CCN(c2cc(C(=O)Nc3cc4cc(-c5cnn(C)c5)ccc4cn3)ccn2)CC1 ... < 0.0316 µM

QUERY: Give its IC50 value. Item: Cn1ncnc1[C@H]1c2n[nH]c(=O)c3cc(F)cc(c23)N[C@@H]1c1ccc(F)cc1 + CN1CCN(c2cc(C(=O)Nc3cc4cc(-c5cnn(C)c5)ccc4cn3)ccn2)CC1
RESULT: < 0.000316 µM

====

# Test system: 996289-038-R-J1-PDC complex spheroid viability
# assayInfo: Anticancer human tumor 996289-038-R-J1-PDC cell line growth inhibition [CLK];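 also: spheroids exposed to the agents for 7 days before readout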
# conditionsUsed: second compound 10 µM; first compound 10 µM; stronger effect = lower value
# Lookup of reported viability, T/C keyed by entry
# output: bare number, implied unit %

1) COC1C=CCC(C)C(C)S(=O)(=O)NC(=O)c2ccc3c(c2)N(CC2CCC21)CC1(CCCc2cc(Cl)ccc21)CO3 (stereo not drawn) + CNC(=O)c1ccc(Nc2nc(OC3CCCC3)c3c(-c4ccc5nc(C)oc5c4)c[nH]c3n2)c(OC)c1 ... 34

QUERY: Dear colleague, I am looking for the recorded viability, T/C of the following compound: COc1cccc2c1C(=O)c1c(O)c3c(c(O)c1C2=O)CC(O)(C(=O)CO)CC3OC1CC(N)C(O)C(C)O1 (stereo not drawn) + CN1CCN(c2cc(C(=O)Nc3cc4cc(-c5cnn(C)c5)ccc4cn3)ccn2)CC1
RESULT: 0.61

QUERY: Field entry: CC(CO)NC(=O)c1cc(-c2ccc(Cl)cc2)nn(-c2cnn(C)c2)c1=O (stereo not drawn) + CN1CCN(c2cc(C(=O)Nc3cc4cc(-c5cnn(C)c5)ccc4cn3)ccn2)CC1
RESULT: 0.38

====

# Test system: 996289-038-R-J1-PDC complex spheroid viability
# assayInfo: Anticancer human tumor 996289-038-R-J1-PDC cell line growth inhibition [CLK];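 also: spheroids exposed to the agents for 7 days before readout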
# conditionsUsed: second compound 0.316 µM; first compound 1 µM; stronger effect = lower value
# key: entry, value: viability, T/C
Could you give me the number in %? Just the number is fine.

Completed entries (count: 2):
1. COc1ccc([C@@H](O)c2cc(-c3ncnc4cc(N5CCOCC5)ccc34)c(F)cc2Cl)nn1 + CNC(=O)c1ccc(Nc2nc(OC3CCCC3)c3c(-c4ccc5nc(C)oc5c4)c[nH]c3n2)c(OC)c1 ... 62.5
2. Nc1ccn(C2OC(CO)C(O)C2(F)F)c(=O)n1 (stereo not drawn) + CN1CCN(c2cc(C(=O)Nc3cc4cc(-c5cnn(C)c5)ccc4cn3)ccn2)CC1 ... 39.2

Turning now to a further record.
QUERY: What does the data say about its viability, T/C? Entry: CC(CO)NC(=O)c1cc(-c2ccc(Cl)cc2)nn(-c2cnn(C)c2)c1=O (stereo not drawn) + CN1CCN(c2cc(C(=O)Nc3cc4cc(-c5cnn(C)c5)ccc4cn3)ccn2)CC1
RESULT: 68.4
